assay-explanation: Pharmacokinetics after i.v. and oral application, mouse
condition-notes: C57BL6, mouse, blood, po, 6 umol/kg
property-label: bioavailability
The reply should consist of the numeric value with the unit placed after it.

Report bioavailability for Cc1cc(C#N)cnc1C(=O)Nc1ccc(F)c([C@]2(C)CO[C@@](C)(C(F)(F)F)C(N)=N2)c1 [NB-360] 37%

----------
assay-explanation: Octanol/water distribution coefficient
Assay type: physicochemical
condition-notes: derived from apparent permeability across an artificial liquid membrane
property-label: logP

Report logP for Cc1cc(C#N)cnc1C(=O)Nc1ccc(F)c([C@]2(C)CO[C@@](C)(C(F)(F)F)C(N)=N2)c1 3.7

----------
assay-explanation: Chronic 6-week treatment of APP51/16 mice: NB-360 blood exposure
condition-notes: female, APP51/16 (C57BL/6 background), mouse, po, 100 μmol/kg
property-label: concentration at 4 h
The reply should consist of the numeric value with the unit placed after it.

Report concentration at 4 h for Cc1cc(C#N)cnc1C(=O)Nc1ccc(F)c([C@]2(C)CO[C@@](C)(C(F)(F)F)C(N)=N2)c1 3.2 µM

----------
Tested on: wtAPP CHO cells
assay-explanation: Release of APP metabolites from wild-type human APP751 CHO cells
condition-notes: Cricetulus griseus, 24 h, read-out: IC50 sAPPβ release
property-label: IC50 (nM)
Note: unit nM is implicit; provide only the numeric part.

Report IC50 for Cc1cc(C#N)cnc1C(=O)Nc1ccc(F)c([C@]2(C)CO[C@@](C)(C(F)(F)F)C(N)=N2)c1 4

----------
assay-explanation: Pharmacokinetics after i.v. and oral application, beagle dog
condition-notes: Beagle, blood, iv, 2 umol/kg
property-label: half-life (h)
Note: unit h is implicit; provide only the numeric part.

Report half-life for Cc1cc(C#N)cnc1C(=O)Nc1ccc(F)c([C@]2(C)CO[C@@](C)(C(F)(F)F)C(N)=N2)c1 36.2

----------
assay-explanation: Chronic 6-week treatment of APP51/16 mice: NB-360 blood exposure
condition-notes: female, APP51/16 (C57BL/6 background), mouse, po, 100 μmol/kg
property-label: concentration at 24 h (nM)
Note: unit nM is implicit; provide only the numeric part.

Report concentration at 24 h for Cc1cc(C#N)cnc1C(=O)Nc1ccc(F)c([C@]2(C)CO[C@@](C)(C(F)(F)F)C(N)=N2)c1 130

----------
assay-explanation: Dissociation constant (pKa)
Assay type: physicochemical
property-label: pKa

Report pKa for Cc1cc(C#N)cnc1C(=O)Nc1ccc(F)c([C@]2(C)CO[C@@](C)(C(F)(F)F)C(N)=N2)c1 [NB-360] 7.1

----------
assay-explanation: Pharmacokinetics after i.v. and oral application, mouse
condition-notes: C57BL6, mouse, blood, iv, 2 umol/kg
property-label: clearance (mL/min/kg)
Note: unit mL/min/kg is implicit; provide only the numeric part.

Report clearance for Cc1cc(C#N)cnc1C(=O)Nc1ccc(F)c([C@]2(C)CO[C@@](C)(C(F)(F)F)C(N)=N2)c1 16

----------
assay-explanation: Blood pharmacokinetics and brain penetration in the rat, 30 μmol/kg oral
Format: in vivo
condition-notes: male, Sprague Dawley, 30 umol/kg, brain
property-label: Cmax (µM)
Note: unit µM is implicit; provide only the numeric part.

Report Cmax for Cc1cc(C#N)cnc1C(=O)Nc1ccc(F)c([C@]2(C)CO[C@@](C)(C(F)(F)F)C(N)=N2)c1 [NB-360] 4.01

// data source = paper PMC4559881
